For each entry below, report its RBC value.
# Species: Rattus norvegicus
# protocol: Open TG-GATES - Regimen: Single
# Type: toxicity, organism-based, Sprague-Dawley
# Parameters: regimen Single, gender Male, age 6 weeks
# condition_description: in vivo, po, 300 mg/kg, 6 h, tissue Blood, route gavage, dose level Middle
// note: answer is a bare numeric in x10_4/ul

Any idea what its RBC is? The compound is CCc1cc(C(N)=S)ccn1 [ETHIONAMIDE]
667

Okay, and O=C(O)c1cc(/N=N/c2ccc(S(=O)(=O)Nc3ccccn3)cc2)ccc1O ?
618.8

Okay, and C[C@H](CS)C(=O)N1CCC[C@H]1C(=O)O ?
615

Okay, and O=C(O)c1cn(C2CC2)c2cc(N3CCNCC3)c(F)cc2c1=O ?
579.8

Okay, and Clc1ccccc1CN1CCc2sccc2C1 ?
637.6

###

For each entry below, report its IP value.
# Species on record: Rattus norvegicus
# protocol: Open TG-GATES - Regimen: Single
# Format: toxicity, organism-based, Sprague-Dawley
# Set-up: regimen Single, gender Male, age 6 weeks
# condition_description: in vivo, po, 0 mg/kg, 24 h, tissue Plasma, route gavage, dose level Control
// note: answer is a bare numeric in mg/dL

Any idea what its IP is? The molecule is COc1cc2c(c3oc(=O)c4c(c13)CCC4=O)[C@@H]1C=CO[C@@H]1O2
7

Okay, and NC(=O)N/N=C/c1ccc([N+](=O)[O-])o1 ?
8

Okay, and NC(=O)N1c2ccccc2C=Cc2ccccc21 [CARBAMAZEPINE] ?
7.9

Okay, and Clc1ccccc1CN1CCc2sccc2C1 ?
8.5

Okay, and CC(=O)Oc1ccccc1C(=O)O ?
7.8

Okay, and O=C(O)c1cc(/N=N/c2ccc(S(=O)(=O)Nc3ccccn3)cc2)ccc1O ?
8.1

Okay, and CSc1ccc2c(c1)N(CCC1CCCCN1C)c1ccccc1S2 (stereo not drawn) ?
8.1

Okay, and C[C@H](CS)C(=O)N1CCC[C@H]1C(=O)O ?
8.5

Okay, and COc1ccc(Cc2nccc3cc(OC)c(OC)cc23)cc1OC ?
7.9

Okay, and CN(C)CCC=C1c2ccccc2CCc2ccccc21 ?
8.2

Okay, and O=C(O)c1cn(C2CC2)c2cc(N3CCNCC3)c(F)cc2c1=O ?
8.3

Okay, and CCc1cc(C(N)=S)ccn1 [ETHIONAMIDE] ?
8.1

Okay, and Cn1c(=O)c2[nH]cnc2n(C)c1=O.O ?
7.7

###

# Species: Rattus norvegicus
# protocol: Open TG-GATES - Regimen: Single
# Format: toxicity, organism-based, Sprague-Dawley
# Parameters: regimen Single, gender Male, age 6 weeks
# condition_description: in vivo, po, 1000 mg/kg, 3 h, tissue Plasma, route gavage, dose level High
quantity_name: Na (meq/L)
// note: answer is a bare numeric in meq/L

Any idea what its Na is? The compound is CCc1cc(C(N)=S)ccn1 [ETHIONAMIDE]
139.2

Okay, and O=C(O)c1cn(C2CC2)c2cc(N3CCNCC3)c(F)cc2c1=O ?
139

Okay, and O=C(O)c1cc(/N=N/c2ccc(S(=O)(=O)Nc3ccccn3)cc2)ccc1O ?
139.6

Okay, and Clc1ccccc1CN1CCc2sccc2C1 ?
140.4

Okay, and C[C@H](CS)C(=O)N1CCC[C@H]1C(=O)O ?
137.8

###

# Species on record: Rattus norvegicus
# protocol: Open TG-GATES - Regimen: Single
# Assay type: toxicity, organism-based, Sprague-Dawley
# Parameters: regimen Single, gender Male, age 6 weeks
# condition_description: in vivo, po, 0 mg/kg, 3 h, tissue Blood, route gavage, dose level Control
condition met if WBC is below 90 x10_2/uL. condition not met if not; exact matches included in condition not met.

Could you please tell me whether WBC recorded for CCc1cc(C(N)=S)ccn1 [ETHIONAMIDE] is less than 90 x10_2/uL?
condition not met

Okay, and C[C@H](CS)C(=O)N1CCC[C@H]1C(=O)O ?
condition not met

Okay, and CSc1ccc2c(c1)N(CCC1CCCCN1C)c1ccccc1S2 (configuration not stated) ?
condition not met

Okay, and Clc1ccccc1CN1CCc2sccc2C1 ?
condition met

Okay, and NC(=O)N/N=C/c1ccc([N+](=O)[O-])o1 ?
condition met

###

For each entry below, report its Lym value.
# Species: Rattus norvegicus
# protocol: Open TG-GATES - Regimen: Daily Repeat
# Format: toxicity, organism-based, Sprague-Dawley
# Parameters: regimen Daily Repeat, gender Male, age 6 weeks
# condition_description: in vivo, po, 0 mg/kg, […], tissue Blood, route gavage, dose level Control, time 14 day
// note: answer is a bare numeric in %

Any idea what its Lym is? The compound is O=C(O)c1cc(/N=N/c2ccc(S(=O)(=O)Nc3ccccn3)cc2)ccc1O
78.4

Okay, and NC(=O)N/N=C/c1ccc([N+](=O)[O-])o1 ?
77.8

Okay, and Clc1ccccc1CN1CCc2sccc2C1 ?
78.8

Okay, and COc1ccc(Cc2nccc3cc(OC)c(OC)cc23)cc1OC ?
82

Okay, and Cn1c(=O)c2[nH]cnc2n(C)c1=O.O ?
79.2

###

# Species on record: Rattus norvegicus
# protocol: Open TG-GATES - Regimen: Single
# Format: toxicity, organism-based, Sprague-Dawley
# Parameters: regimen Single, gender Male, age 6 weeks
# condition_description: in vivo, po, 100 mg/kg, 9 h, tissue Kidney, route gavage, dose level Low
quantity_name: KIDNEY_R (g)
// note: answer is a bare numeric in g

Any idea what its KIDNEY_R is? The molecule is O=C(O)c1cn(C2CC2)c2cc(N3CCNCC3)c(F)cc2c1=O [CIPROFLOXACIN]
0.9

Okay, and O=C(O)c1cc(/N=N/c2ccc(S(=O)(=O)Nc3ccccn3)cc2)ccc1O [SULFASALAZINE] ?
1

Okay, and C[C@H](CS)C(=O)N1CCC[C@H]1C(=O)O [CAPTOPRIL] ?
1

Okay, and CCc1cc(C(N)=S)ccn1 [ETHIONAMIDE] ?
1

Okay, and Clc1ccccc1CN1CCc2sccc2C1 [TICLOPIDINE] ?
0.9

###

For each entry below, report its Neu value.
# Species: Rattus norvegicus
# protocol: Open TG-GATES - Regimen: Daily Repeat
# Format: toxicity, organism-based, Sprague-Dawley
# Set-up: regimen Daily Repeat, gender Male, age 6 weeks
# condition_description: in vivo, po, 0 mg/kg, 72 h, tissue Blood, route gavage, dose level Control, time 3 day
// note: answer is a bare numeric in %

Any idea what its Neu is? The molecule is Cn1c(=O)c2[nH]cnc2n(C)c1=O.O [THEOPHYLLINE]
15.2

Okay, and CO[C@H]1/C=C/O[C@@]2(C)Oc3c(C)c(O)c4c(O)c(c(/C=N/N5CCN(C)CC5)c(O)c4c3C2=O)NC(=O)/C(C)=C\C=C\[C@H](C)[C@H](O)[C@@H](C)[C@@H](O)[C@@H](C)[C@H](OC(C)=O)[C@@H]1C [RIFAMPIN] ?
13.8

Okay, and O=C(O)c1cn(C2CC2)c2cc(N3CCNCC3)c(F)cc2c1=O [CIPROFLOXACIN] ?
12

Okay, and CCc1cc(C(N)=S)ccn1 [ETHIONAMIDE] ?
18.6

Okay, and Clc1ccccc1CN1CCc2sccc2C1 [TICLOPIDINE] ?
17

Okay, and COc1ccc(Cc2nccc3cc(OC)c(OC)cc23)cc1OC [PAPAVERINE] ?
14.4

Okay, and CSc1ccc2c(c1)N(CCC1CCCCN1C)c1ccccc1S2 (centres undefined) [THIORIDAZINE] ?
13

Okay, and NC(=O)N/N=C/c1ccc([N+](=O)[O-])o1 [NITROFURAZONE] ?
15

Okay, and CC(=O)Oc1ccccc1C(=O)O [ASPIRIN] ?
13.4

Okay, and COc1ccc2c(c1)c(CC(=O)O)c(C)n2C(=O)c1ccc(Cl)cc1 [INDOMETHACIN] ?
10.2

Okay, and CCCC(CCC)C(=O)O [VALPROIC ACID] ?
12.8

Okay, and NC(=O)N1c2ccccc2C=Cc2ccccc21 [CARBAMAZEPINE] ?
15.6

Okay, and O=C(O)c1cc(/N=N/c2ccc(S(=O)(=O)Nc3ccccn3)cc2)ccc1O [SULFASALAZINE] ?
16.8

Okay, and CN(C)CCC=C1c2ccccc2CCc2ccccc21 [AMITRIPTYLINE] ?
23.4

###

# Species: Rattus norvegicus
# protocol: Open TG-GATES - Regimen: Daily Repeat
# Type: toxicity, organism-based, Sprague-Dawley
# Set-up: regimen Daily Repeat, gender Male, age 6 weeks
# condition_description: in vivo, po, 0 mg/kg, […], tissue Plasma, route gavage, dose level Control, time 28 day
For each entry below, report its AST value.

Any idea what its AST is? The molecule is Clc1ccccc1CN1CCc2sccc2C1
58.6 IU/L

Okay, and NC(=O)N1c2ccccc2C=Cc2ccccc21 [CARBAMAZEPINE] ?
68.2 IU/L

Okay, and O=C(O)c1cc(/N=N/c2ccc(S(=O)(=O)Nc3ccccn3)cc2)ccc1O ?
80.6 IU/L

Okay, and CC(=O)Oc1ccccc1C(=O)O ?
60.8 IU/L

Okay, and COc1ccc(Cc2nccc3cc(OC)c(OC)cc23)cc1OC ?
68.2 IU/L

Okay, and CCCC(CCC)C(=O)O ?
64.4 IU/L

Okay, and Cn1c(=O)c2[nH]cnc2n(C)c1=O.O ?
64.8 IU/L

Where do these numbers come from? They come from ChEMBL document CHEMBL3885861.
